testedTarget: T1, human complement protein C5 (human, UniProt P01031 19-1676)
T1 construct: Native C5 is a two-chain protein made from one precursor; also called hC5; human C5
methodDescription: SPR (Biacore)
measuredEndpoint: kon (M⁻¹ s⁻¹)

1) LCP0136 (VHH, llama anti-C5 VHH, tested as VHH-His fusion; not shown: His-tag) VHH: EVQLVESGGGLVQPGESLRLSCAISGFAFTDVGMSWVRQAPGKGLEWVSSISSGSSITTYSDSVKGRFTISRDNARNTLFLQMNSLKPEDTAVYYCGRYYCTGLGCHPRRDSALWGQGTQVTVSS :: 486000
2) LCP0095 (VHH, llama anti-C5 VHH, tested as VHH-His fusion; not shown: His-tag) VHH: EVQLVESGGGLVQAGGSLRLSCTASGRTISTTVMAWFRQAPGKEREFVAADHWGDAGTVYADSVKGRFTISRDNAKNTVYLQMNYLKPEDTSVYYCAARPPTYVGTSRDSRAYDYWGQGTQVTVSS :: 286000
3) LCP0296 (VHH, llama anti-C5 VHH, tested as VHH-His fusion; not shown: His-tag) VHH: EVQLVESGGGVVQAGDSLTLTCTAPVGTISDYGMGWFRQAPGKEREFVASISWGGMWTDYADSVKGRFTISRDNDKNAVYLRMNSLNAEDTAVYYCGRGRMYRGIGNSLAQPKSYGYWGQGTQVTVSS :: 93400
4) LCP0143 (VHH, llama anti-C5 VHH, tested as VHH-His fusion; not shown: His-tag) VHH: EVQLVESGGGLVQAGGSLRLSCAAPEMGATINVMAWYRQAPGKQRELVARLPLDNNIDYGDFAKGRFTISRDITRNTVYLQMNNLKPDDTAVYYCNVLLSRQINGAYVHWGQGTQVTVSS :: 691000
